Catalogue of Replicate_2 values
- target_of_assay: SARS-CoV-2 3CLpro (Severe acute respiratory syndrome coronavirus 2, UniProt P0DTD1)
- method_notes: biochemical
- Format: biochemical
- Parameters: unit not given here
- assay_conditions: sheet LOPAC_screen_w_protease; primary screen with protease, 5 µM; replicate 2
Give the value as a plain number.

Study these solved cases before continuing.
compound	target_of_assay	Replicate_2
CC(C)C[C@H](NP(=O)([O-])O[C@H]1O[C@H](C)[C@@H](O)[C@H](O)[C@@H]1O)C(=O)N[C@@H](Cc1c[nH]c2ccccc12)C(=O)[O-].[Na+].[Na+] [Phosphoramidon disodium]	SARS-CoV-2 3CLpro (Severe acute respiratory syndrome coronavirus 2, UniProt P0DTD1)	-0.1832
CC(=O)NNC(=O)N1Cc2ccccc2Oc2ccc(Cl)cc21	SARS-CoV-2 3CLpro (Severe acute respiratory syndrome coronavirus 2, UniProt P0DTD1)	-0.7326
Cl.NCCNC(=O)c1ccc(Cl)cc1 [Ro 16-6491 hydrochloride]	SARS-CoV-2 3CLpro (Severe acute respiratory syndrome coronavirus 2, UniProt P0DTD1)	-0.404

Looking up C=CC[C@H](N)C(=O)O , I found its Replicate_2 recorded as 1.372

Record summary for CP(=O)(O)C1=CCNCC1 : reported Replicate_2 = 0.6269

So for CS(=O)(=O)O.Cc1c(C(=O)c2cccc3ccccc23)c2cccc3c2n1[C@H](CN1CCOCC1)CO3 [(R)-(+)-WIN 55,212-2 mesylate] , the logged Replicate_2 turned out to be 0.07161

The reported value for C=CC(N)CCC(=O)O (racemic) [(±)-gamma-Vinyl GABA] in terms of Replicate_2 is -0.1698

Value of Replicate_2 reported for the compound Cl.Cl.NCCNS(=O)(=O)c1cccc2cnccc12 [H-9 dihydrochloride] is -0.1494

* * *

Readings of Replicate_2 (LOPAC screen with protease) for the listed molecules
- target_of_assay: SARS-CoV-2 3CLpro (Severe acute respiratory syndrome coronavirus 2)
- method_notes: biochemical
- Assay type: biochemical
- assay_conditions: sheet LOPAC_screen_w_protease; primary screen at 5 µM; replicate 2

// solved cases for Replicate_2 (LOPAC screen with protease) follow
>>> df
                                   molecule  test_result
0  CN1CC[C@@]2(C)c3cc(O)ccc3N(C)[C@@H]12.O=C(O)/C=C/C(=O)O [(-)-Eseroline fumarate]      86.9147
1  Cl.NC[C@@H]1O[C@H](C23CC4CC(CC(C4)C2)C3)Cc2c1ccc(O)c2O [A-77636 hydrochloride]      60.9383
2  O=C(O)c1cc[c]([Hg][Cl])cc1 [4-Chloromercuribenzoic acid, reference compound]      102.675
3  CCC(NC(C)C)C(O)c1ccc(O)c(O)c1.CS(=O)(=O)O (centres unmarked) [Isotharine mesylate]        8.416
4  CC(=O)NCCc1ccc(O)c(O)c1.O [N-Acetyldopamine monohydrate]      78.1962
5  CC(C)N(CCC(=O)c1ccc2ccccc2c1)Cc1ccccc1.Cl [ZM 39923 hydrochloride]      94.6636

Lab note: Br.CN=c1nc(-c2ccccc2)n(-c2ccccc2)s1 [SCH-202676 hydrobromide] gave Replicate_2 (LOPAC screen with protease) of 100.647

Record summary for CCCc1c(OCCCOc2ccc(OCC(=O)O)cc2)ccc(C(C)=O)c1O : reported Replicate_2 (LOPAC screen with protease) = 12.8255

Lookup result for Cc1ccc(S(=O)(=O)N[C@@H](CCCCN)C(=O)CCl)cc1.Cl ; measured Replicate_2 (LOPAC screen with protease): 19.5724

Recorded Replicate_2 (LOPAC screen with protease) (molecule Cl.NCCS [Cysteamine hydrochloride] ): 7.996

The molecule identified as CCCN1CCc2cccc3c2[C@H]1Cc1ccc(O)c(O)c1-3.Cl [R(-)-Propylnorapomorphine hydrochloride] registered its Replicate_2 (LOPAC screen with protease) at 100.647

Memo: CCCn1c(=O)c2[nH]c(C3CCCC3)nc2n(CCCOC(=O)c2ccc(S(=O)(=O)F)cc2)c1=O , reported Replicate_2 (LOPAC screen with protease): 5.548

// Replicate_2 (LOPAC screen with protease) lookup, molecule = Br.Oc1ccc(C2CNCc3sccc32)cc1O (centres unmarked) [SKF 89626, reference compound] , result: 42.3715

Given item Br.C=CCN1CCc2cccc3c2[C@H]1Cc1ccc(O)c(O)c1-3 [R(-)-N-Allylnorapomorphine hydrobromide] , the value recorded as its Replicate_2 (LOPAC screen with protease) is 95.1969

Measured Replicate_2 (LOPAC screen with protease) of O=C1C(SCCO)=C(SCCO)C(=O)c2ccccc21 [NSC 95397, reference compound] : 17.3004

Memo: CN(C)CCCCSC(=N)N.Cl.Cl [SKF 91488 dihydrochloride] , reported Replicate_2 (LOPAC screen with protease): 10.8358

Memo: CN(N=O)c1ccc(O)c(O)c1 [Me-3,4-dephostatin, reference compound] , reported Replicate_2 (LOPAC screen with protease): 25.3998
